tested on: Caco-2; assay: cell viability relative to DMSO; higher = less toxic; details: 72 h; 1 nM
cell viability values for the molecules below.
Numeric only. Scale: %

Worked set:
CCOc1ccc(C(=O)OCCN(CC)CC)cc1 [parethoxycaine]; 97.1
Oc1ccc(CC2NCCc3cc(O)c(O)cc32)cc1 (stereo unspecified) [higenamine]; 97.6
COc1ccc(S(=O)(=O)N2CCCN(S(=O)(=O)c3ccc(OC)c(OC)c3)CC2)cc1OC; 89.4
CCCS(=O)(=O)Nc1ccc(F)c(C(=O)c2c[nH]c3ncc(Cl)cc23)c1F [PLX4720]; 96.8

Read off the recorded cell viability for CN(C)C1CCN(C(=O)c2ccc(NC(=O)Nc3ccc(-c4nc(N5CCOCC5)nc(N5CCOCC5)n4)cc3)cc2)CC1
93.8

Quote cell viability reported for O=C(/C=C/c1ccccc1)NC(NC(=S)Nc1cccc2cccnc12)C(Cl)(Cl)Cl (stereo unspecified) [salubrinal] please.
126

* * *

Listed here are molecules together with their documented cell viability.
system: Calu-3; experiment: cell viability relative to DMSO; higher = less toxic; details: 72 h; 10 nM
A number alone suffices; assume %.

Given the molecule Cc1cc(S(=O)(=O)O)c2c(C)ccc(C(C)C)cc1-2 [sodium-gualenate] , write its reported cell viability.
91.8

Give the value of cell viability reported for the following: CCC/C=C1\OC(=O)C2=C1CCC=C2 [ligustilide]
88.8

Provide only the value of recorded cell viability for CC(=O)CC/C=C(\C)CC/C=C(\C)CC/C=C(\C)CCC=C(C)C
88.5

In one line, give reported cell viability of the entry COC[C@H]1OC(=O)c2coc3c2[C@@]1(C)C1=C(C3=O)[C@@H]2CCC(=O)[C@@]2(C)C[C@H]1OC(C)=O .
90.6

Determine its reported cell viability: CC1(C)C(/C=C/C=C/C=C/C=C2\N(CCCCS(=O)(=O)O)c3ccc4ccccc4c3C2(C)C)=[N+](CCCCS(=O)(=O)[O-])c2ccc3ccccc3c21
108

Look up and state reported cell viability for CC(C)(F)C[C@H](N[C@@H](c1ccc(-c2ccc(S(C)(=O)=O)cc2)cc1)C(F)(F)F)C(=O)NC1(C#N)CC1
97.1

Input CC(=O)Nc1c(I)cc(I)c(C(=O)O)c1I , output reported cell viability.
95.3

Dear colleague, please send me the reported cell viability for CC(NC(C)(C)C)C(=O)c1cccc(Cl)c1 (stereo unspecified) when you can.
96.3

Tell me cell viability reported for CN(C)CCC=C1c2ccccc2CCc2ccccc21
109

Give a short answer stating reported cell viability for Oc1ccc(C2(c3ccccc3F)CCC(F)(F)CC2)cc1 .
98.4

Provide measured cell viability value, entry: C=CC[C@]1(O)CC[C@H]2[C@@H]3CCC4=CCCC[C@@H]4[C@H]3CC[C@@]21C
108

Give the reported cell viability for this molecule. CC(C)C[C@@H](N)C1(c2ccc(Cl)cc2)CCC1
104

Given O=[N+]([O-])c1nccn1CC(O)CN1CCCCC1 (stereo unspecified) , respond with its cell viability.
93.2

Give the reported cell viability for this molecule. Cc1ccc(-c2nn(C(C)(C)CNC(=O)c3ncccc3C)c3ncnc(N)c23)cc1
110

Return the recorded cell viability value; entry: CC(=O)N1N=C(c2ccc(N)cc2)c2cc3c(cc2C[C@H]1C)OCO3
99.6

* * *

system: Caco-2; assay: cell viability relative to DMSO; higher = less toxic; conditions: 72 h; 100 nM
result-type: cell viability (%)
// return numeric value only (unit: %, not printed)

CC(C)C(=O)Oc1ccc(CO)cc1[C@H](CCN(C(C)C)C(C)C)c1ccccc1; 103

Please turn your attention to the following entry.
Read off the recorded cell viability for CO[C@H]1[C@H](O)[C@@H](O)[C@@H](O)[C@H](O)[C@@H]1O
104

* * *

system: Calu-3; assay: cell viability relative to DMSO; higher = less toxic; details: 72 h; 1 nM
result-type: cell viability

// solved cases for cell viability follow
C=C(C)[C@@H]1[C@H]2OC(=O)[C@@H]1[C@]1(O)C[C@H]3O[C@]34C(=O)O[C@H]2[C@]14C; 104%
CCC(=O)NS(=O)(=O)c1ccc(-c2c(-c3ccccc3)noc2C)cc1; 106%
CN(C)CCC=C1c2ccccc2CCc2ccccc21; 99.6%
CC(C)(NS(=O)(=O)c1ccc(Oc2ccc(F)cc2)cc1)C(=O)NO; 106%
CCOC(=O)c1c(CSc2ccccc2)n(C)c2cc(Br)c(O)c(CN(C)C)c12; 94.5%
CN1C[C@@H](NS(=O)(=O)N(C)C)C[C@@H]2c3cccc4c3c(cn4C)C[C@H]21; 111%

Give reported cell viability for Cc1ccc(Oc2ccccc2-c2csc(N=C3NCCCN3)n2)c(C)c1 (Calu-3)
90.4%

Report value only: cell viability, Calu-3, CC(C)c1cc(C(C)C)c(CC(=O)NS(=O)(=O)Oc2c(C(C)C)cccc2C(C)C)c(C(C)C)c1
92.2%

Lab note: record cell viability of c1ccc2oc(C3=NCCN3)cc2c1 tested on Calu-3.
95.9%

Lab note: Calu-3 assay, enter cell viability for COc1cc(OC)c(/C=C/S(=O)(=O)Cc2ccc(OC)c(OP(=O)(O)O)c2)c(OC)c1 here
101%

Retrieve cell viability on Calu-3; query CC1(C)O[C@@H]2C[C@H]3[C@@H]4CCC5=CC(=O)CC[C@]5(C)[C@@]4(F)[C@@H](O)C[C@]3(C)[C@]2(C(=O)CCl)O1 [halcinonide]
106%

* * *

Listing of recorded cell viability by entry.
tested on: HepG2; assay: cell viability relative to DMSO; higher = less toxic; settings: 72 h; 1 nM
Your answer should be a plain number; it is taken to be in %.

Please review the entries below; each comes with its answer.
CCOC(=O)c1c(/C(C#N)=C\N)c2ccc(Cl)c(Cl)c2n1C; 99.8
CC(C)(CO)Cc1cc(C(C)(C)C)c(O)c(C(C)(C)C)c1; 109
CC(C)OC(=O)N1CCC(Oc2ncnc3c2cnn3-c2ccc(S(C)(=O)=O)cc2F)CC1; 103

Given the molecule O=C1[O][SbH]23[O]C(=O)C([O]2)C2[O][SbH]4([O]C(=O)C([O]4)C1[O]3)[O]C2=O [antimonyl] , write its reported cell viability.
96.3

Please give the documented cell viability of S=C(S)N1CCCC1 [pyrrolidine-dithiocarbamate]
95.5

Tell us which cell viability value is on record for O=C(NCCO)c1cccc(-c2cc(Nc3ccc(OC(F)(F)F)cc3)ncn2)c1
99.5

Read off the recorded cell viability for c1ccc(Oc2nc(NC3CCCCC3)c3[nH]cnc3n2)cc1
110

Fill in cell viability for record O=C(NOCC1CC1)c1ccc(F)c(F)c1Nc1ccc(I)cc1Cl
96.9

Recall and state the measured cell viability for Nc1nc(=O)c(Br)c(-c2ccccc2)[nH]1 .
102

Supply measured cell viability of CCC[C@H](NC(=O)[C@@H]1[C@H]2CCC[C@H]2CN1C(=O)[C@@H](NC(=O)[C@@H](NC(=O)c1cnccn1)C1CCCCC1)C(C)(C)C)C(=O)C(=O)NC1CC1 in your reply.
115

Provide one value: measured cell viability of CCCCCCCCCCCCCCCC[n+]1ccccc1
106

For CCCCOc1cc(C(=O)NCCN(CC)CC)c2ccccc2n1 , write its cell viability.
97.2

Dear colleague, please send me the reported cell viability for Cc1ccc(Nc2ncc3c(n2)N(C)C(=O)N(c2cc(NC(=O)c4cccc(C(F)(F)F)c4)ccc2C)C3)cn1 when you can.
92.5

Report cell viability, nothing else, for this molecule: CN1[C@H]2C[C@H](OC(=O)[C@H](CO)c3ccccc3)C[C@@H]1[C@@H](O)C2
104

Please report cell viability for the following molecule: NS(=O)(=O)c1cc2c(cc1Cl)NC(CC1CCCC1)NS2(=O)=O (stereo not given) [cyclopenthiazide]
111

* * *

Listed below: cell viability values for each entry.
tested on: Calu-3; assay: cell viability relative to DMSO; higher = less toxic; conditions: 72 h; 100 nM
Give just the number in %; leave the unit off.

Cn1c(=O)cnn(CCCCN2CCN(c3ncccn3)CC2)c1=O; 102
Oc1ccc(C(O)CNCCCCCCNCC(O)c2ccc(O)c(O)c2)cc1O (stereo unspecified) [hexoprenaline]; 99.7
COc1cc(-c2cc(-c3cccc(O)c3)cnc2N)cc(OC)c1OC; 92.3
C[C@H]1COC2=C1C(=O)C(=O)c1c2ccc2c1CCCC2(C)C; 99.1
O=C(NC1CCC1)c1ccc(C#Cc2cccc(F)c2)nc1; 98.8

Please give measured cell viability of the following entry: N#C/C(=C1/SC[C@@H](c2ccc(Cl)cc2Cl)S1)n1ccnc1
96.8

Please report cell viability for the following compound: CCC1(c2c[nH]cn2)Cc2ccccc2C1
94.9

Tell us which cell viability value is on record for CC#C[C@@H](CC(=O)O)c1ccc(OCc2cccc(-c3ccc(C(F)(F)F)cc3)c2)cc1
110

Give reported cell viability value for N=C(N)NCCSSCCNC(=N)N [guanidinoethyldisulfide-bicarbonate]
99.9

Return the recorded cell viability value; entry: CCCC(O)C(CC)CO (stereo unspecified)
102

Please report the measured cell viability for C#C[C@]1(OC(C)=O)CC[C@H]2[C@@H]3CCC4=CC(=O)CC[C@@H]4[C@H]3CC[C@@]21C [norethindrone-acetate]
90.8

Quickly give me recorded cell viability for Clc1ccc(C(Cn2ccnc2)OCc2c(Cl)cccc2Cl)c(Cl)c1 (stereo unspecified)
105

Look up cell viability of CN1[C@H]2C[C@H](OC(=O)[C@H](CO)c3ccccc3)C[C@@H]1[C@@H](O)C2 and report it.
105

Each recorded value in this set is attributed to the supplement of paper PMC13380429.
